B1: mRNA-splicing (parent)
chain: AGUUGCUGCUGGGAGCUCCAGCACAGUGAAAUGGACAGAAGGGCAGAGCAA

# Variants of: B1
# experiment-description: exon inclusion enrichment index; higher = more inclusion; WT1 exon 5 minigene, HEK293
Please map values of exon inclusion enrichment index to classes as shown: class 0 (below 0.06), class 1 (0.06 to below 0.7), class 2 (0.7 or more)

mutations: C6A U7A C9A U10A G46U A47G
classification: class 1
//
mutations: G5A C6G U7G C9A G34C A35U
classification: class 0
//
mutations: G5A C6U U7A G8U C9A A14U G15A
classification: class 0
//
mutations: G5A C6G U7G C9A U32A G33A
classification: class 0
//
mutations: G5C C6G U7C U10C C18U C19G
classification: class 2
//
mutations: A29G A30G
classification: class 1
//
mutations: G5A C6U U7A G8U C9A C24A A25U
classification: class 1
//
mutations: U4A G5C U7C G8A U10C
classification: class 2
//
mutations: C6A U7C C9A U10C A35C C36U
classification: class 2
//
mutations: C6A U7C C9A U10C G15U
classification: class 2
